These measurements were taken from patent US20150307520A1.

- Tested on: p110α/p85α (Homo sapiens)
- Sequence (P42336 whole entry): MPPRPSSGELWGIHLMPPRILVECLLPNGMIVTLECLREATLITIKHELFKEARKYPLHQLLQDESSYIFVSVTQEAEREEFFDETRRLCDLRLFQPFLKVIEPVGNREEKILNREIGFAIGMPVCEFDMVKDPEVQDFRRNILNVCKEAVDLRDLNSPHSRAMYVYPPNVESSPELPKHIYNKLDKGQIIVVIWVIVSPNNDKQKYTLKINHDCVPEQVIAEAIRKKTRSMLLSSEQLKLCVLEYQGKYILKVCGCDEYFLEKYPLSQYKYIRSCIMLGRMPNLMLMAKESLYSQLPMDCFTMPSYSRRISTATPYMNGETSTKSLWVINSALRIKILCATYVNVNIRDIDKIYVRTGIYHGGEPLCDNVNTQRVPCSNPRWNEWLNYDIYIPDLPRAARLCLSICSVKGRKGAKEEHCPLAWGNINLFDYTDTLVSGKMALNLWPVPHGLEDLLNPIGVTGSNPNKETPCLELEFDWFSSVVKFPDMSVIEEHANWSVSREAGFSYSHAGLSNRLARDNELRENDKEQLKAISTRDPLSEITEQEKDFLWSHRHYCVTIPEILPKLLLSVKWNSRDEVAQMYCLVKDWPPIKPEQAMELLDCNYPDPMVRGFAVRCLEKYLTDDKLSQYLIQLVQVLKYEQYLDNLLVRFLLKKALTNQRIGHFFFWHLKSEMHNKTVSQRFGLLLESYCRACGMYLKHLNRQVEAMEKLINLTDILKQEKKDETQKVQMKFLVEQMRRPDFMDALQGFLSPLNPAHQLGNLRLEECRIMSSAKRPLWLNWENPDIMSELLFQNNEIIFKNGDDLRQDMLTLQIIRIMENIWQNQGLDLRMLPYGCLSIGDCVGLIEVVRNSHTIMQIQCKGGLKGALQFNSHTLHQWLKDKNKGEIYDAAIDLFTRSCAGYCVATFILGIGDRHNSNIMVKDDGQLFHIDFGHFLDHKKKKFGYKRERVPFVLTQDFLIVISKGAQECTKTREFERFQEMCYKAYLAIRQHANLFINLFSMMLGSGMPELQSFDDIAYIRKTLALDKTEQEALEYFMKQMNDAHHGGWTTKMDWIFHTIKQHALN
- Sequence (P27986 whole entry partner): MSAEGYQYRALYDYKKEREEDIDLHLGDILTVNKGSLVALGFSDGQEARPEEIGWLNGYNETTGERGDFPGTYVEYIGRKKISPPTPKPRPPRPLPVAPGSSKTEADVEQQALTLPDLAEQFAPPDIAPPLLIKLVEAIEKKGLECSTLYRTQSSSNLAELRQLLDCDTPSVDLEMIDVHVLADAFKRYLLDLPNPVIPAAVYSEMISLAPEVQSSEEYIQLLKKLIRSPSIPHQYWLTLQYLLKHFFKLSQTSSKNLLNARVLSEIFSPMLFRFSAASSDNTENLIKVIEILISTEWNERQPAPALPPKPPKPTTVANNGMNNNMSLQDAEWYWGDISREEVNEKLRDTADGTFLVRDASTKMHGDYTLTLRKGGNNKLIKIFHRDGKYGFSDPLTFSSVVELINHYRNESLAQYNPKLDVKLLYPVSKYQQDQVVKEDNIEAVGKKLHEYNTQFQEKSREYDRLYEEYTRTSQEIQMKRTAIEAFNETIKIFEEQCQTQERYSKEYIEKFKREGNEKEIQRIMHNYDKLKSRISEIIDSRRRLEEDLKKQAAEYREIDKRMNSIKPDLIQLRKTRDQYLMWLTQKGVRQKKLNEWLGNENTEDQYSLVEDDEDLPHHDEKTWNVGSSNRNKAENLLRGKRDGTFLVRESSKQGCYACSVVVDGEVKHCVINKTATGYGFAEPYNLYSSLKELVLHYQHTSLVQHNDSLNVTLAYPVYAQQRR
- Protocol details: Transcreener KINASE Assay, kinase inhibition of p110α/p85α
- Format: biochemical
- Experimental parameters: 1 uM test compound
Measure: PI3Kα IH % @ 1 uM
Hey, just the number and the unit after it is fine.

See these solved cases before continuing.
[
  {
    "Compound": "CC(Nc1ncnc2[nH]cc(C#N)c12)c1cc2ccc(Cl)n2c(=O)n1-c1cccc(F)c1 (stereo not shown) [Compound 128]",
    "PI3Kα IH % @ 1 uM": "40.3%"
  },
  {
    "Compound": "Cc1ccn2nc([C@@H]3CCCN3c3ncnc4[nH]cc(C#N)c34)n(-c3ccccc3)c(=O)c12 [Compound 42]",
    "PI3Kα IH % @ 1 uM": "71.8%"
  },
  {
    "Compound": "O=c1c2c(Cl)ccn2nc([C@@H]2CCCN2c2ncnc3[nH]cnc23)n1-c1ccccn1 [Compound 311]",
    "PI3Kα IH % @ 1 uM": "10.1%"
  },
  {
    "Compound": "C[S+]([O-])c1c[nH]c2ncnc(N3CCC[C@H]3c3nn4ccc(Cl)c4c(=O)n3-c3ccccc3)c12 (stereo partly shown) [Compound 197]",
    "PI3Kα IH % @ 1 uM": "28.4%"
  },
  {
    "Compound": "O=c1c2c(Cl)ccn2nc([C@@H]2CCCN2c2ncnc3[nH]cnc23)n1-c1ccccc1 [Compound 26]",
    "PI3Kα IH % @ 1 uM": "20.3%"
  }
]

Q: Would you kindly share the measured PI3Kα IH % @ 1 uM for Cc1ccn2nc([C@@H]3CCCN3c3nc(N)nc4[nH]cnc34)n(-c3ccccc3)c(=O)c12 [Compound 44] ?
Result: 46.7%

Q: Look up PI3Kα IH % @ 1 uM for this compound: C[S@+]([O-])c1c[nH]c2ncnc(N3CCC[C@H]3c3nn4ccc(Cl)c4c(=O)n3-c3ccccc3)c12 [Compound 382]
Result: 14.1%

Q: Any idea what PI3Kα IH % @ 1 uM was measured for Cc1ccn2nc([C@@H]3CCCN3c3ncnc4[nH]cnc34)n(-c3ccccc3)c(=O)c12 [Compound 43] ?
Result: 35.1%

Q: # query: PI3Kα IH % @ 1 uM of entry O=c1c2c(Cl)ccn2nc([C@@H]2CCN2c2ncnc3[nH]cnc23)n1-c1ccccc1 [Compound 29]
Result: −1.5%

Q: Which PI3Kα IH % @ 1 uM reading was recorded for the compound CO/N=C(\C)c1c[nH]c2ncnc(N3CCC[C@H]3c3nn4ccc(Cl)c4c(=O)n3-c3ccccc3)c12 [Compound 308] ?
Result: 9.7%
